Overview of recorded Kd for various binders
test target: T1, recombinant canine Nerve Growth Factor (Canis lupus familiaris NGF) (canine (Canis lupus familiaris), UniProt Q29074 110-229 (pig entry), limits assumed)
T1 construct: also called canine NGF; Dog NGF
T1 chain: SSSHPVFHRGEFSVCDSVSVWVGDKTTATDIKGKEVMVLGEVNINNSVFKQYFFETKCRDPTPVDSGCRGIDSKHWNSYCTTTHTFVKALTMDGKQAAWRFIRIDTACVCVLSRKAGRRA
measurement notes: SPR, Biacore T100, dog NGF; run 11/29; comment 'Agg?'
Provide only the numeric value, understood in nM.

Solved cases below.
binder | endpoint result
LTM construct 112 (HC Y101W, G103A; LC D28S, NH31HN, K92D) (antibody, V domains shown, Point mutant of canE3M65 as full IgG) VH: EVQLVESGGDLARPGGSLKLSCVVSGFSLIGYDINWVRQAPGKGLQWVTMIWGDGTTDYNSALKSRFTVSRDNAMNTVYLQMNSLRVEDTAVYYCARGGYWYATSYYFDYWGQGTLVTVSS VL: DIVMTQTPLSLSVSPGETASISCRASQSISHNLNWFRQKPGQSPQRLIYYISRFHSGVPDRFSGSGSGTDFTLRISRVEADDTGVYYCQQSDTLPYTFGAGTKLEIK | 0.0152
LTM135 (HC G103A, LC H32N) (antibody, V domains shown, Point mutant of canE3M65 as full IgG) VH: EVQLVESGGDLARPGGSLKLSCVVSGFSLIGYDINWVRQAPGKGLQWVTMIWGDGTTDYNSALKSRFTVSRDNAMNTVYLQMNSLRVEDTAVYYCARGGYYYATSYYFDYWGQGTLVTVSS VL: DIVMTQTPLSLSVSPGETASISCRASQDISNNLNWFRQKPGQSPQRLIYYISRFHSGVPDRFSGSGSGTDFTLRISRVEADDTGVYYCQQSKTLPYTFGAGTKLEIK | 0.0061
LTM construct 110 (HC Y101W, G103A; LC K92D) (antibody, V domains shown, Point mutant of canE3M65 as full IgG) VH: EVQLVESGGDLARPGGSLKLSCVVSGFSLIGYDINWVRQAPGKGLQWVTMIWGDGTTDYNSALKSRFTVSRDNAMNTVYLQMNSLRVEDTAVYYCARGGYWYATSYYFDYWGQGTLVTVSS VL: DIVMTQTPLSLSVSPGETASISCRASQDISNHLNWFRQKPGQSPQRLIYYISRFHSGVPDRFSGSGSGTDFTLRISRVEADDTGVYYCQQSDTLPYTFGAGTKLEIK | 0.942
LTM construct 133 (HC G103A, LC K92H) (antibody, V domains shown, Point mutant of canE3M65 as full IgG) VH: EVQLVESGGDLARPGGSLKLSCVVSGFSLIGYDINWVRQAPGKGLQWVTMIWGDGTTDYNSALKSRFTVSRDNAMNTVYLQMNSLRVEDTAVYYCARGGYYYATSYYFDYWGQGTLVTVSS VL: DIVMTQTPLSLSVSPGETASISCRASQDISNHLNWFRQKPGQSPQRLIYYISRFHSGVPDRFSGSGSGTDFTLRISRVEADDTGVYYCQQSHTLPYTFGAGTKLEIK | 0.011

Let us move to another entry and its Kd.
Item under review: LTM construct 111 (HC Y101W, G103A; LC *D28S, NH31HN, S91Y) (antibody, V domains shown, The '*' is not explained) VH: EVQLVESGGDLARPGGSLKLSCVVSGFSLIGYDINWVRQAPGKGLQWVTMIWGDGTTDYNSALKSRFTVSRDNAMNTVYLQMNSLRVEDTAVYYCARGGYWYATSYYFDYWGQGTLVTVSS VL: DIVMTQTPLSLSVSPGETASISCRASQSISHNLNWFRQKPGQSPQRLIYYISRFHSGVPDRFSGSGSGTDFTLRISRVEADDTGVYYCQQYKTLPYTFGAGTKLEIK . Reported Kd?
0.0288

These data points were gathered from patent US20150147318A1.
